- Test system: E21 (patient-derived glioblastoma stem cells of mesenchymal subtype)
- measurement_notes: surviving fraction (nuclei count normalised to DMSO); higher = more cells surviving (less toxic)
- assay_conditions: 111.1 nM; exposure time: 72 h
Where a name gives a salt, the structure may show the parent alone.
measurement_label: surviving fraction

• O=C1CC[C@@H](C(=O)N2CSC[C@H]2C(=O)O)N1 = 1.08
• C=CC(=O)Nc1cccc(Oc2nc(Nc3ccc(N4CCN(C)CC4)cc3)nc3ccsc23)c1 = 0.759
• Nc1nc(Cl)nc2c1ncn2[C@@H]1O[C@H](CO)[C@@H](O)[C@@H]1F = 0.771
• Cc1cc(Nc2cc(N3CCN(C)CC3)nc(Sc3ccc(NC(=O)C4CC4)cc3)n2)n[nH]1 = 0.743
• N=C(N)c1ccc(-c2ccc(-c3ccc(C(=N)N)cc3)o2)cc1 [Furamidine dihydrochloride] = 1.01
• CN1C(=O)CC(c2ccccc2)C1=O (configuration not stated) [Phensuximide] = 1.04
• CC[C@]1(O)C[C@@H]2CN(CCc3c([nH]c4ccccc34)[C@@](C(=O)OC)(c3cc4c(cc3OC)N(C)[C@H]3[C@@](O)(C(=O)OC)[C@H](OC(C)=O)[C@]5(CC)C=CCN6CC[C@]43[C@@H]65)C2)C1 [Vinblastine sulfate] = 0.08

---

- Test system: E31 (patient-derived glioblastoma stem cells of proneural subtype)
- measurement_notes: phenotypic distance (Euclidean, principal components) from DMSO controls (arbitrary units); higher = stronger morphological change
- assay_conditions: 37 nM; exposure time: 72 h
measurement_label: phenotypic distance

* CCc1c2c(nc3ccc(OC(=O)N4CCC(N5CCCCC5)CC4)cc13)-c1cc3c(c(=O)n1C2)COC(=O)[C@]3(O)CC | 0.721
* COC(=O)Nc1nc2cc(Sc3ccccc3)ccc2[nH]1 | 0.989
* CC(=O)O[C@@]12CO[C@@H]1C[C@H](O)[C@@]1(C)C(=O)[C@H](O)C3=C(C)[C@@H](OC(=O)[C@H](O)[C@@H](NC(=O)OC(C)(C)C)c4ccccc4)C[C@@](O)([C@@H](OC(=O)c4ccccc4)[C@H]21)C3(C)C | 4.04
* C=CC(=O)Nc1cccc(Oc2nc(Nc3ccc(N4CCN(C)CC4)cc3)nc3ccsc23)c1 | 0.731
* Nc1ncnc2c1c(-c1ccc(Oc3ccccc3)cc1)cn2C1CCCC1 | 0.739
* CCCCCCCCCCCCCCCC[N+](C)(C)CCN(Cc1ccc(OC)cc1)c1ncccn1 [Thonzonium bromide] | 0.797
* O=c1[nH]c(=O)n([C@H]2C[C@H](O)[C@@H](CO)O2)cc1I | 0.938
* COc1cccc2c1C(=O)c1c(O)c3c(c(O)c1C2=O)C[C@@](O)(C(=O)CO)C[C@@H]3O[C@H]1C[C@H](N)[C@H](O[C@@H]2CCCCO2)[C@H](C)O1 | 4.87
* Clc1ccc(C(Cn2ccnc2)OCc2ccsc2Cl)c(Cl)c1 (stereo not drawn) | 0.639
* N=C(NCCCCCCNC(=N)NC(=N)Nc1ccc(Cl)cc1)NC(=N)Nc1ccc(Cl)cc1 | 0.809
* Cc1cc(C(C)(C)CC(C)(C)C)ccc1OCCOCC[N+](C)(C)Cc1ccccc1 [Methyl benzethonium chloride] | 1.09
* CC(=O)CC(c1ccc([N+](=O)[O-])cc1)c1c(O)c2ccccc2oc1=O (stereo not drawn) | 1.07
* CC(=O)O[C@H]1C[C@H](O[C@H]2[C@@H](O)C[C@H](O[C@H]3[C@@H](O)C[C@H](O[C@H]4CC[C@@]5(C)[C@H](CC[C@@H]6[C@@H]5C[C@@H](O)[C@]5(C)[C@@H](C7=CC(=O)OC7)CC[C@]65O)C4)O[C@@H]3C)O[C@@H]2C)O[C@H](C)[C@H]1O[C@@H]1O[C@H](CO)[C@@H](O)[C@H](O)[C@H]1O [Lanatoside C] | 4.72

---

- Tested on: E34 (patient-derived glioblastoma stem cells of proneural subtype)
- measurement_notes: phenotypic distance (Euclidean, principal components) from DMSO controls (arbitrary units); higher = stronger morphological change
- assay_conditions: 333.3 nM; exposure time: 72 h
Structures can show the parent of a compound that is named as a salt.
measurement_label: phenotypic distance

- CN1[C@@H]2CC[C@H]1CC(OC(=O)c1c[nH]c3ccccc13)C2 (stereo partly drawn) [3-Tropanyl-indole-3-carboxylate hydrochloride]: 0.741
- CCN(CC)Cc1ccc(C(=O)N(CCc2ccccc2OC)[C@@H]2CCNC2)cc1: 1.04
- CN[C@@H](C)C(=O)N[C@H](C(=O)N1CCC[C@H]1C(=O)N[C@H]1c2ccccc2C[C@H]1OCC#CC#CCO[C@@H]1Cc2ccccc2[C@@H]1NC(=O)[C@@H]1CCCN1C(=O)[C@@H](NC(=O)[C@H](C)NC)C1CCCCC1)C1CCCCC1 [AZD5582]: 0.735

---

Catalogue of compounds with associated surviving fraction
- Tested on: FT3469 (normal neural stem cell line)
- measurement_notes: surviving fraction (nuclei count normalised to DMSO); higher = more cells surviving (less toxic)
- assay_conditions: 111.1 nM; exposure time: 72 h
measurement_label: surviving fraction

- Cc1cc(/C=C/c2ccc3cc(N(C)C)ccc3[n+]2C)c(C)n1-c1ccccc1 [Pyrvinium pamoate]: 0.677
- Cc1ccc(NC(=O)c2ccc3c(c2)OCCO3)cc1NC(=O)c1ccc2nc(OCCN3CCCC3)ccc2c1: 0.608
- CC(C)C(=O)OCC(=O)[C@@]12O[C@H](C3CCCCC3)O[C@@H]1C[C@H]1[C@@H]3CCC4=CC(=O)C=C[C@]4(C)[C@H]3[C@@H](O)C[C@@]12C [Ciclesonide]: 1.04
- NCCCP(=O)(O)O: 0.941

---

- Test system: E13 (patient-derived glioblastoma stem cells of classical subtype)
- measurement_notes: surviving fraction (nuclei count normalised to DMSO); higher = more cells surviving (less toxic)
- assay_conditions: 37 nM; exposure time: 72 h
measurement_label: surviving fraction

* O=C(Nc1ccc([N+](=O)[O-])cc1Cl)c1cc(Cl)ccc1O [Niclosamide] | 0.156
* Nc1nc(Cl)nc2c1ncn2[C@@H]1O[C@H](CO)[C@@H](O)[C@@H]1F | 0.86
* CCn1cc(-c2ccnc3[nH]c(-c4cccc(CN(C)C)c4)cc23)c(-c2ccc(NC(=O)N(C)C)cc2)n1 | 0.458
* Clc1ccc(COC(Cn2ccnc2)c2ccc(Cl)cc2Cl)c(Cl)c1 (centres undefined) | 0.925

---

- Tested on: E57 (patient-derived glioblastoma stem cells of mesenchymal subtype)
- measurement_notes: phenotypic distance (Euclidean, principal components) from DMSO controls (arbitrary units); higher = stronger morphological change
- assay_conditions: 3000 nM; exposure time: 72 h
Where a name gives a salt, the structure may show the parent alone.
# cutoff 2 applies to phenotypic distance; >= gives Satisfied, < gives Not satisfied

* COc1cc2c(NC3CCN(C(C)C)CC3)nc(C3CCCCC3)nc2cc1OCCCN1CCCC1 | Not satisfied
* COC(=O)Nc1nc2cc(C(=O)c3ccccc3)ccc2[nH]1 | Satisfied
* COc1cc2c(cc1O)CC[C@@H]1[C@@H]2CC[C@]2(C)[C@@H](O)CC[C@@H]12 | Satisfied
* CCn1c(-c2nonc2N)nc2cnc(Oc3cccc(NC(=O)c4ccc(OCCN5CCOCC5)cc4)c3)cc21 | Satisfied
* C[C@@H](O[C@H]1OCCN(Cc2n[nH]c(=O)[nH]2)[C@H]1c1ccc(F)cc1)c1cc(C(F)(F)F)cc(C(F)(F)F)c1 [Aprepitant] | Not satisfied
* OC[C@H]1O[C@@H](Oc2ccc(O)cc2)[C@H](O)[C@@H](O)[C@@H]1O | Not satisfied
* CC(C)C[C@H]1C(=O)N2CCC[C@H]2[C@]2(O)O[C@](NC(=O)[C@@H]3C=C4c5cccc6[nH]c(Br)c(c56)C[C@H]4N(C)C3)(C(C)C)C(=O)N12 [Bromocryptine mesylate] | Not satisfied

---

- Tested on: E13
- measurement_notes: surviving fraction (nuclei count normalised to DMSO); higher = more cells surviving (less toxic)
- assay_conditions: 37 nM; exposure time: 72 h
Counter-ions that a name gives are not always drawn.
// classify(record): look up surviving fraction in ranges bin A (below 0.9), bin B (0.9 to below 1), bin C (1 or more)

* N=C(NCCCCCCNC(=N)NC(=N)Nc1ccc(Cl)cc1)NC(=N)Nc1ccc(Cl)cc1 | bin B
* CCCSc1ccc2[nH]c(NC(=O)OC)nc2c1 | bin B
* CC(C)NCC(O)c1cc(O)cc(O)c1 (configuration not stated) [Metaproterenol sulfate, orciprenaline sulfate] | bin C
* c1ccc2c(c1)[I+]c1ccccc1-2 [Diphenyleneiodonium chloride] | bin A
* CO[C@H]1C(=O)[C@]2(C)[C@@H](OC)C[C@H]3OC[C@@]3(OC(C)=O)[C@H]2[C@H](OC(=O)c2ccccc2)[C@]2(O)C[C@H](OC(=O)[C@H](O)[C@@H](NC(=O)OC(C)(C)C)c3ccccc3)C(C)=C1C2(C)C | bin A
* CC(C)(Oc1ccc(C2CC2(Cl)Cl)cc1)C(=O)O (configuration not stated) [Ciprofibrate] | bin C
* C=CC(=O)Nc1cccc(Oc2nc(Nc3ccc(N4CCN(C)CC4)cc3)nc3ccsc23)c1 | bin B
* CC[n+]1c(/C=C/C=C2/N(C)c3ccccc3C2(C)C)sc2ccccc21 | bin A
* CC(=O)[C@]1(O)Cc2c(O)c3c(c(O)c2[C@@H](O[C@H]2C[C@H](N)[C@H](O)[C@H](C)O2)C1)C(=O)c1ccccc1C3=O | bin A
* O=C(Oc1cccc2cccnc12)c1ccccc1 | bin C
* Cc1c2ccncc2c(C)c2c1[nH]c1ccccc12 | bin B
* OC[C@H]1NC[C@H](O)[C@@H](O)[C@@H]1O | bin A
* NC(=O)c1ccccc1 [Benzamide] | bin B
* C[C@]12CC[C@H](O)C[C@H]1CC[C@@H]1[C@@H]2C[C@@H](O)[C@]2(C)[C@@H](C3=CC(=O)OC3)CC[C@]12O | bin B
* O=C(/C=C\n1cnc(-c2cc(C(F)(F)F)cc(C(F)(F)F)c2)n1)NNc1cnccn1 [Selinexor] | bin A
* CC[C@@]1(O)C(=O)OCc2c1cc1n(c2=O)Cc2cc3c(CN(C)C)c(O)ccc3nc2-1 | bin A
* COc1cccc2c(NCc3ccccc3)nc(-n3c(N)nc4ccccc43)nc12 | bin C

The measurements presented in this section are drawn from the supplement of paper PMC13207355.
